Let's go through some MIC measurements on Escherichia coli together.

CHEMICAL_STRING | TESTED_TARGET | VALUE
CC(=O)NC[C@H]1CN(c2ccc(/C=C(\C)[N+](=O)[O-])cc2)C(=O)O1 | Escherichia coli | > 128 µg/mL
CC(=O)NC[C@H]1CN(c2ccc(C=C(C#N)C#N)cc2)C(=O)O1 | Escherichia coli | > 128 µg/mL
CC/C(=C\c1ccc(N2C[C@H](CNC(C)=O)OC2=O)cc1)[N+](=O)[O-] | Escherichia coli | > 128 µg/mL

# ---- query molecule ----
Problem: # query: MIC | item `CC(=O)NC[C@H]1CN(c2ccc(/C(C)=C(\C)C#N)cc2)C(=O)O1` | system: Escherichia coli
Result: > 128 µg/mL

----------
Let's go through some MIC measurements on Escherichia coli together.

COMPOUND | MIC
CC(=O)NC[C@H]1CN(c2ccc(C3=CC(=O)CCC3)cc2)C(=O)O1 [Example 68] | > 128 µg/mL
COC(=O)/C=C/c1ccc(N2C[C@H](CNC(C)=O)OC2=O)cc1 [Example 59] | > 128 µg/mL
CC(=O)NC[C@H]1CN(c2ccc(/C(C)=C(/C)C#N)cc2)C(=O)O1 [Example 11] | > 128 µg/mL

Problem: Please look up its MIC: CC(=O)NC[C@H]1CN(c2ccc(/C=C/C(N)=O)cc2)C(=O)O1 [Example 62]
Result: > 128 µg/mL

Problem: Please look up its MIC: CC(=O)NC[C@H]1CN(c2ccc(C=C(C(C)=O)C(C)=O)cc2)C(=O)O1 [Example 28]
Result: > 128 µg/mL
